Value source: ChEMBL document CHEMBL4818994

Record form. Attribute: Ki. Fill in for each entry.
System: Broad substrate specificity ATP-binding cassette transporter ABCG2 (Homo sapiens, UniProt Q9UNQ0)
Sequence (Q9UNQ0 whole entry): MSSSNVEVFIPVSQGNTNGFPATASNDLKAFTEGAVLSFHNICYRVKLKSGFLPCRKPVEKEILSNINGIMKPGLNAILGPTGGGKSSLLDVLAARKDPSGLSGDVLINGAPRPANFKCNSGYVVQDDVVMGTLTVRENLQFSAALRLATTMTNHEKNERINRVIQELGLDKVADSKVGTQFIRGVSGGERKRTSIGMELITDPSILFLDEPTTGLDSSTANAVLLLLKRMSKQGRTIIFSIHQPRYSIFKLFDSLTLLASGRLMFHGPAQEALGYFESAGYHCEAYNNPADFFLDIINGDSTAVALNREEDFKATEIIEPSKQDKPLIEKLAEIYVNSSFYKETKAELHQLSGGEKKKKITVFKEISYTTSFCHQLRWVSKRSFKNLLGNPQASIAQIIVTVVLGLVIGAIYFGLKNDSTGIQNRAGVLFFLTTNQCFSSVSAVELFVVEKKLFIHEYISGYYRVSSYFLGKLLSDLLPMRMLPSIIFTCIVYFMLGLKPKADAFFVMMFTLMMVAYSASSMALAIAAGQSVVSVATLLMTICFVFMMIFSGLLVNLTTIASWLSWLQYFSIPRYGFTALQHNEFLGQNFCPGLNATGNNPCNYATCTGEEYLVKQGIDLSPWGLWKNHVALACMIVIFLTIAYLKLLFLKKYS
Assay text: Mixed inhibition of human ABCG2 transfected in human HEK293 cells assessed as Ki1 for inhibition of mitoxantrone efflux measured after 30 mins by FACS Calibur cytometric analysis
Type: cell-based

Q. Returns the measured Ki for the input molecule. Input: COc1cccc(CCn2c3c(c4c(OCCCCCCOc5ccc6c(c5)-c5c(c7c(n5CCc5ccccc5)CC(C)CC7=O)C6=O)cccc42)C(=O)c2ccccc2-3)c1 (stereo not drawn)
A. 192 nM

Q. What about COc1cccc(CCn2c3c(c4c(O)cccc42)C(=O)c2ccccc2-3)c1 ?
A. 188 nM

Q. What about CC1CC(=O)c2c3c(n(CCc4ccccc4)c2C1)-c1ccccc1C3=O (stereo not drawn) ?
A. 323 nM
